// provenance: patent US20080182842A1

Target: α5β1 integrin (Homo sapiens, UniProt P05556+P08648)
Sequence (P08648 42-894 limits assumed): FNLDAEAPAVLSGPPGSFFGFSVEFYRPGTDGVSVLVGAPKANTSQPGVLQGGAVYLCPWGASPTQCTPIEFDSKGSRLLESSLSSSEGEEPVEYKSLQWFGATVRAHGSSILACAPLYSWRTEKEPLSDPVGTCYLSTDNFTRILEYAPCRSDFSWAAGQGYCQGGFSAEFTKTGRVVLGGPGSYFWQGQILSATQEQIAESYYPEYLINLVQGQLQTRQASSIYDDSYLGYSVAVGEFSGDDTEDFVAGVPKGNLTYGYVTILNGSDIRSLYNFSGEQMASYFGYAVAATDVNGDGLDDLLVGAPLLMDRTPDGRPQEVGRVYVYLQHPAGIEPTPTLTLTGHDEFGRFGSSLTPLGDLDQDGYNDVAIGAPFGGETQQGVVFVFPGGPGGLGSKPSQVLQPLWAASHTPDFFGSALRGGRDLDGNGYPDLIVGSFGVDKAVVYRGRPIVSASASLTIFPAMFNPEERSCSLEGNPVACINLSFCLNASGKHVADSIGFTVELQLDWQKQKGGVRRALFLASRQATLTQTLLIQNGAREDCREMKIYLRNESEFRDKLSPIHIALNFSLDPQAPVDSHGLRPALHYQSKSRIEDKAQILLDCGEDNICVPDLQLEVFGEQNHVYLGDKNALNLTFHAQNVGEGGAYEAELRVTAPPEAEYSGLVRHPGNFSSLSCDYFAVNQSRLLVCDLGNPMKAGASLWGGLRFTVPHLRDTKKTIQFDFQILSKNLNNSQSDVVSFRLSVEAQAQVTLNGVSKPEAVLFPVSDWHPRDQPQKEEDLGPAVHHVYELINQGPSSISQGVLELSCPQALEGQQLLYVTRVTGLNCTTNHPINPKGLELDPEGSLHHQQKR
Sequence (P08648 895-1049 partner limits assumed): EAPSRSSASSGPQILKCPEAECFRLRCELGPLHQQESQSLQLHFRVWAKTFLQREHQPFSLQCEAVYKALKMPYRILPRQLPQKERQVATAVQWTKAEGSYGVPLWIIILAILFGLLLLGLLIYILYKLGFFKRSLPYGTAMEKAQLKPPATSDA
Sequence (P05556 21-798): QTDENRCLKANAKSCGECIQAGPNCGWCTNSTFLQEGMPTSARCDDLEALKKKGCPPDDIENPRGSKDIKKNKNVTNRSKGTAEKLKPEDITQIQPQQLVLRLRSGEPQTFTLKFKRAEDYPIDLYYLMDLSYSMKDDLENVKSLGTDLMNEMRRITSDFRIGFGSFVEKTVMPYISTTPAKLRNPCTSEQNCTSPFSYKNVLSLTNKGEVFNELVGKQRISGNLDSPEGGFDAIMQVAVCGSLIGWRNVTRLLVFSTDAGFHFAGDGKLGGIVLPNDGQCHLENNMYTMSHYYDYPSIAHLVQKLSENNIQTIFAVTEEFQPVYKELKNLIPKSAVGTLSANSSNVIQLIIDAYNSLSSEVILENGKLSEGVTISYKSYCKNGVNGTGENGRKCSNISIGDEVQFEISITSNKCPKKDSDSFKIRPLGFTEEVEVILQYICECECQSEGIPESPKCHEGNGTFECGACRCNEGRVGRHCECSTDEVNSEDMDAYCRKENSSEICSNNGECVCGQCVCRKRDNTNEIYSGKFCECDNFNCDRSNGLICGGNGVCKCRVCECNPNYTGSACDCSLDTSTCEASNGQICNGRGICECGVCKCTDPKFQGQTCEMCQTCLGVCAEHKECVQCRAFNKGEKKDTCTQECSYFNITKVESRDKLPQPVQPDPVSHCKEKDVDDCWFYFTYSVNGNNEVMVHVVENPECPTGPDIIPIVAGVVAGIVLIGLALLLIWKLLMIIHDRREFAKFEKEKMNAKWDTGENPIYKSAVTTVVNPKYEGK
Experiment: In vitro binding assay (a): inhibition of binding of α5β1 integrin to fibronectin fragment Fn9-10 (Origen electrochemiluminescence)
Conditions: recombinant human α5β1 vs Fn9-10 ligand; geometric mean where tested more than once
pIC50: −log10 of the molar value.
assay_readout: pIC50

# compound, inequality_symbol, value
measured = [
    ("CNc1cccc(CCOc2ccc(C[C@H](NC(=O)C(C)(C)C(=O)N3CCCC3)C(=O)O)cc2)n1", "=", 8.70),
    ("CNc1cccc(CCOc2ccc(C[C@H](NC(=O)C3CCCCC3)C(=O)O)cc2)n1", "=", 7.49),
    ("CNc1cccc(CCOc2ccc(C[C@H](NC(=O)C3CC3)C(=O)O)cc2)n1", "=", 6.22),
    ("CNc1cccc(CCOc2ccc(C[C@H](NC(=O)C3(OC)CCOCC3)C(=O)O)cc2)n1", "=", 8.40),
    ("CC1(C(=O)N[C@@H](Cc2ccc(OCCc3ccc4c(n3)NCCO4)cc2)C(=O)O)CCCCC1", "=", 7.96),
    ("CCCCC(CC)C(=O)N[C@@H](Cc1ccc(OCCc2cccc(NC)n2)cc1)C(=O)O (some centres unmarked)", "=", 8.10),
    ("CC1CCCCC1C(=O)N[C@@H](Cc1ccc(OCCc2ccc3c(n2)NCCC3)cc1)C(=O)O (some centres unmarked)", ">", 9.00),
    ("CNc1cccc(CCOc2ccc(C[C@H](NC(=O)C3CCCC3)C(=O)O)cc2)n1", "=", 8.05),
]

* * *

Target: α5β1 integrin (Homo sapiens, UniProt P05556+P08648)
Assay: In vitro binding assay (a): inhibition of binding of α5β1 integrin to fibronectin fragment Fn9-10 (Origen electrochemiluminescence)
Details: recombinant human α5β1 vs Fn9-10 ligand; geometric mean where tested more than once
IC50 strictly less than 70 nM = true. Otherwise false.

# compound, tested_target, assigned_class
data = [
    ("CNc1cccc(CCOc2ccc(C[C@H](NC(=O)C(C)C)C(=O)O)cc2)n1", "α5β1 integrin (Homo sapiens, UniProt P05556+P08648)", "false"),
    ("CC1(C(=O)N[C@@H](Cc2ccc(OCCc3ccc4c(n3)NCCC4)cc2)C(=O)O)CCCCC1", "α5β1 integrin (Homo sapiens, UniProt P05556+P08648)", "true"),
    ("CNc1cccc(CCOc2ccc(C[C@H](NC(=O)C3(O)CC3)C(=O)O)cc2)n1", "α5β1 integrin (Homo sapiens, UniProt P05556+P08648)", "false"),
    ("CNc1cccc(CCOc2ccc(C[C@H](NC(=O)C3CCC3)C(=O)O)cc2)n1", "α5β1 integrin (Homo sapiens, UniProt P05556+P08648)", "true"),
    ("CNc1cccc(CCOc2ccc(C[C@H](NC(=O)Cc3ccccn3)C(=O)O)cc2)n1", "α5β1 integrin (Homo sapiens, UniProt P05556+P08648)", "false"),
    ("CNc1cccc(CCOc2ccc(C[C@H](NC(=O)Cc3ccncc3)C(=O)O)cc2)n1", "α5β1 integrin (Homo sapiens, UniProt P05556+P08648)", "false"),
    ("CNc1cccc(CCOc2ccc(C[C@H](NC(=O)C3CCCN3C)C(=O)O)cc2)n1 (some centres unmarked)", "α5β1 integrin (Homo sapiens, UniProt P05556+P08648)", "false"),
    ("CC(C)(C(=O)N[C@@H](Cc1ccc(OCCc2ccc3c(n2)NCCO3)cc1)C(=O)O)C(=O)N1CCCC1", "α5β1 integrin (Homo sapiens, UniProt P05556+P08648)", "true"),
]

* * *

Molecular target: α5β1 integrin (Homo sapiens, UniProt P05556+P08648)
Experiment: In vitro binding assay (a): inhibition of binding of α5β1 integrin to fibronectin fragment Fn9-10 (Origen electrochemiluminescence)
Settings: recombinant human α5β1 vs Fn9-10 ligand; geometric mean where tested more than once
Reported IC50 by item:

# compound, IC50, nM
data = [
    ("CNc1cccc(CCOc2ccc(C[C@H](NC(=O)Cc3cccnc3)C(=O)O)cc2)n1 [Example 1.26]", 525),
    ("CNc1cccc(CCOc2ccc(C[C@H](NC(=O)C3(CO)CCOCC3)C(=O)O)cc2)n1 [Example 1.20]", 32),
    ("CNc1cccc(CCOc2ccc(C[C@H](NC(=O)CCc3ccccc3)C(=O)O)cc2)n1 [Example 1.21]", 45),
    ("CCC(=O)N[C@@H](Cc1ccc(OCCc2cccc(NC)n2)cc1)C(=O)O [Example 1.9]", 116),
    ("CCCCCC(=O)N[C@@H](Cc1ccc(OCCc2cccc(NC)n2)cc1)C(=O)O [Example 1.10]", 179),
    ("CNc1cccc(CCOc2ccc(C[C@H](NC(=O)[C@H](C)OC)C(=O)O)cc2)n1 [Example 1.3]", 22),
    ("CNc1cccc(CCOc2ccc(C[C@H](NC(=O)C3CCCCCC3)C(=O)O)cc2)n1 [Example 1.14]", 7),
    ("CNc1cccc(CCOc2ccc(C[C@H](NC(=O)[C@H](CC(C)C)NC(=O)c3ccccc3)C(=O)O)cc2)n1 [Example 1.4]", 66),
]

* * *

Reported log10(IC50) by item:
Biological target: α5β1 integrin (Homo sapiens, UniProt P05556+P08648)
Assay: In vitro binding assay (a): inhibition of binding of α5β1 integrin to fibronectin fragment Fn9-10 (Origen electrochemiluminescence)
Conditions: recombinant human α5β1 vs Fn9-10 ligand; geometric mean where tested more than once
assay_readout: log10(IC50) (log10 of the value in nM)

# molecule, tested_target, log10(IC50)
rows = [
    ("CNc1cccc(CCOc2ccc(C[C@H](NC(=O)C(c3ccccc3)c3ccccc3)C(=O)O)cc2)n1 [Example 1.24]", "α5β1 integrin (Homo sapiens, UniProt P05556+P08648)", 1.65),
    ("COC1(C(=O)N[C@@H](Cc2ccc(OCCc3ccc4c(n3)NCCO4)cc2)C(=O)O)CCOCC1 [Example 5.3]", "α5β1 integrin (Homo sapiens, UniProt P05556+P08648)", 0.70),
    ("CNc1cccc(CCOc2ccc(C[C@H](NC(=O)C(C)(C)C)C(=O)O)cc2)n1 [Example 1.13]", "α5β1 integrin (Homo sapiens, UniProt P05556+P08648)", 1.53),
    ("CC#CC(=O)N[C@@H](Cc1ccc(OCCc2cccc(NC)n2)cc1)C(=O)O [Example 1.8]", "α5β1 integrin (Homo sapiens, UniProt P05556+P08648)", 2.56),
    ("CNc1cccc(CCOc2ccc(C[C@H](NC(=O)Cc3ccccc3)C(=O)O)cc2)n1 [Example 1.22]", "α5β1 integrin (Homo sapiens, UniProt P05556+P08648)", 2.33),
    ("CNc1cccc(CCOc2ccc(C[C@H](NC(=O)C3CCCCC3C)C(=O)O)cc2)n1 (stereo partly drawn) [Example 1.2]", "α5β1 integrin (Homo sapiens, UniProt P05556+P08648)", 0.85),
]

* * *

Target: α5β1 integrin (Homo sapiens, UniProt P05556+P08648)
Assay: In vitro binding assay (a): inhibition of binding of α5β1 integrin to fibronectin fragment Fn9-10 (Origen electrochemiluminescence)
Details: recombinant human α5β1 vs Fn9-10 ligand; geometric mean where tested more than once
Text: (a) In Vitro Binding Assay The assay determined the ability of compounds to inhibit binding of α5β1 integrin to a cognate ligand, a fragment of human fibronectin. The assay used Origen technology (IGEN International) to measure the compound activity. […] The ruthenium-labeled tag emits an electrochemiluminescence signal upon stimulation which is detected by the Origen reader. […]
assay_readout: IC50 (nM)

# molecule, assay_readout, value
measured = [
    ("CNc1cccc(CCOc2ccc(C[C@H](NC(=O)C(O)c3ccccc3)C(=O)O)cc2)n1 (stereo partly shown)", "IC50", 837),
    ("CNc1cccc(CCOc2ccc(C[C@H](NC(=O)[C@@H](C)OC)C(=O)O)cc2)n1", "IC50", 29),
    ("CNc1cccc(CCOc2ccc(C[C@H](NC(=O)C3CCCN3C(C)C)C(=O)O)cc2)n1 (stereo partly shown)", "IC50", 61),
    ("CNc1cccc(CCOc2ccc(C[C@H](NC(=O)C3(C)CCCCC3)C(=O)O)cc2)n1", "IC50", 5),
]
